- Test System: T1, HLA-A*02:01 in complex with the EGFR peptide … conjugated with osimertinib (human, osimertinib covalently bound to Cys)
- T1 construct: also called HLA-A*02:01_EGFR-osimertinib; osimertinib-EGFR/HLA-A*02
- Experiment Notes: yeast display
Measure Name: binding result

1) EO_Q06 (scFv, V domains shown, yeast-display scFv) VH: EVQLVESGGGLVQPGGSLRLSCAASGFTISSSYIHWVRQAPGKGLEWVAYISPSYGSTSYADSVKGRFTISADTSKNTAYLQMNSLRAEDTAVYYCARESITMTKDYWGQGTLVTVSS VL: DIQMTQSPSSLSASVGDRVTITCRASQSVSSAVAWYQQKPGKAPKLLIYSASSLYSGVPSRFSGSRSGTDFTLTISSLQPEDFATYYCQQYSHWPITFGQGTKVEIKR | binds
2) EO_Q13 (scFv, V domains shown, yeast-display scFv) VH: EVQLVESGGGLVQPGGSLRLSCAASGFTISSSYIHWVRQAPGKGLEWVAYISPSYGSTSYADSVKGRFTISADTSKNTAYLQMNSLRAEDTAVYYCARELTTMTADYWGQGTLVTVSS VL: DIQMTQSPSSLSASVGDRVTITCRASQSVSSAVAWYQQKPGKAPKLLIYSASSLYSGVPSRFSGSRSGTDFTLTISSLQPEDFATYYCQQYSHWPITFGQGTKVEIKR | binds
